- Test system: HCC-2998 colon
- protocol-details: NCI-60 one-dose screen, 48 h
- condition-details: 10 µM
Compounds without any hit were thinned out: in the full panel of roughly 83,000, 20% have a hit. Active and inactive are the calls of the source. How the source made its calls: active means growth percent below 10; inactive means the rest.
Select the matching outcome among active, inactive

Consider the worked cases shown below.
{"input-smiles": "COc1cc2ncnc(Nc3ccc(O)cc3)c2cc1OC", "class-label": "inactive"}
{"input-smiles": "COc1cc(-c2nc(C(=O)Nc3ccc(C)cc3)nn2-c2ccc(F)c(F)c2)cc(OC)c1OC", "class-label": "inactive"}
{"input-smiles": "O=C(Nc1cn[nH]c1-c1nc2ccc(CN3CCOCC3)cc2[nH]1)NC1CC1", "class-label": "inactive"}

[ask] Could you check what this test reported for `CCOc1cccc(/C=N/NC(=O)c2ccccc2Nc2ccnc(C(F)(F)F)c2)c1O` ?
[reply] inactive

[ask] State the result this test recorded for `Cc1cc(-c2cc(O)ccc2Cl)cc2nnc(Nc3ccc(OCCN4CCCC4)cc3)nc12` .
[reply] active

====

- Test system: SN12C renal
- protocol-details: NCI-60 one-dose screen, 48 h (100 = growth as untreated, 0 = no growth, -100 = all killed)
- condition-details: 10 µM unless noted
This is part of a sample that, as a whole, favours compounds with a hit. Of some 83,000 tested, about 20% had one in any assay.
property-measured: growth (%)
The reply should contain only the number, in %.

{"input-smiles": "C=CCn1c(=O)c2cnc(Nc3ccc(N4CCN(C)CC4)cc3)nc2n1-c1cccc(C(C)(C)O)n1", "tested-target": "SN12C renal", "growth, %": 28.4}
{"input-smiles": "CC(=O)O[C@]1(C)C[C@H](O)[C@]2(O)C=CO[C@H](O[C@@H]3O[C@H](CO)[C@@H](O)[C@H](O)[C@H]3O)[C@@H]21", "tested-target": "SN12C renal", "growth, %": 101}
{"input-smiles": "CC(C)n1c(NCCc2ccc(O)c(O)c2)nc2c1c(=O)n(C)c(=O)n2C", "tested-target": "SN12C renal", "growth, %": 98.4}
{"input-smiles": "CCS(=O)(=O)N1CCN(c2ccc(Nc3ncc(C(N)=O)c(NC4CC4)n3)cc2)CC1", "tested-target": "SN12C renal", "growth, %": 62.8}
{"input-smiles": "Brc1ccc([I+]c2ccc(Br)cc2)cc1", "tested-target": "SN12C renal", "growth, %": -26.9}
{"input-smiles": "CC(C)[C@@H]1CC[C@@H]2[C@@H]1[C@H](OC(=O)/C=C/c1ccccc1)[C@]1(C(C)C)C[C@@H](OC(=O)CO)[C@@]2(C)O1", "tested-target": "SN12C renal", "growth, %": 49.7}
{"input-smiles": "COc1cc(OC)c(C(=O)/C=C/c2cc3c(cc2OCc2ccccc2)OC(C)(C)CC3)cc1CC=C(C)C", "tested-target": "SN12C renal", "growth, %": 47.6}

Proceed to the following item.
The observed growth for `COC(=O)[C@]12CC[C@@H](C)[C@H](C)[C@@H]1C1=CC[C@@H]3[C@@]4(C)C(c5cnco5)=C[C@@](C)(CO)C4=CC[C@@]3(C)[C@]1(C)CC2` when tested with SN12C renal stands at 55.9

====

The entries below are paired with their reported growth.
- Test system: UACC-62 melanoma
- protocol-details: NCI-60 one-dose screen, 48 h (100 = growth as untreated, 0 = no growth, -100 = all killed)
- condition-details: 10 µM unless noted
Compounds without any hit were thinned out: in the full panel of roughly 83,000, 20% have a hit.
# value in %; strip the unit string

Recorded results for 8 compounds are shown here.
{"compound": "Nc1ccc(S(=O)(=O)O)c2cc(S(=O)(=O)O)cc(O)c12", "tested-target": "UACC-62 melanoma", "growth [%]": 112}
{"compound": "CNC(=O)c1nn(C)c2c1C(C)(C)Cc1cnc(Nc3ccc(N4CCN(C)CC4)cc3)nc1-2", "tested-target": "UACC-62 melanoma", "growth [%]": -9.49}
{"compound": "COc1cc(CCc2cc(NC(=O)c3ccc(N4C[C@@H](C)N[C@@H](C)C4)cc3)n[nH]2)cc(OC)c1", "tested-target": "UACC-62 melanoma", "growth [%]": 45.4}
{"compound": "CCCC(=O)OCC1OC(n2cnc3c(=S)nc[nH]c32)C(OC(=O)CCC)C1OC(=O)CCC (centres undefined)", "tested-target": "UACC-62 melanoma", "growth [%]": 13.7}
{"compound": "Cc1ccc(N=C2CSc3nnc(-c4csc5c4CCCC5)n3N2)cc1", "tested-target": "UACC-62 melanoma", "growth [%]": 40.2}
{"compound": "CC(C)=CCc1cc2c(cc1O)C1=C(C(=O)C3=C(C1=O)S(=O)(=O)CCN3)C(C=C(C)C)O2 (centres undefined)", "tested-target": "UACC-62 melanoma", "growth [%]": -32.3}
{"compound": "C[C@@H](N)c1ccc(C(=O)Nc2ccnc3[nH]ccc23)cc1", "tested-target": "UACC-62 melanoma", "growth [%]": 82.1}
{"compound": "S=C(NCc1ccc2c(c1)OCO2)N1CCN(c2ncnc3c2oc2ccccc23)CC1", "tested-target": "UACC-62 melanoma", "growth [%]": 31}

Let's switch to this compound now.
Summary for this compound, `CCOc1cc2ncc(C#N)c(Nc3ccc(F)c(Cl)c3)c2cc1NC(=O)/C=C/CN(C)C` : growth is -46.7

Provenance of the data: PubChem BioAssay (NCI)
